- System: human lymphoblastic leukemic cells (CCRF-CEM)
- method_description: XTT-tetrazolium cytotoxicity assay, CCRF-CEM
- Format: cell-based
- condition_info: Table 3, Type 3 compounds, 72 h incubation, XTT, read-out: IC50
quantity_name: pIC50
# pIC50 is unitless: minus log10 of the molar concentration; print number only

# input Can you look up pIC50 on human lymphoblastic leukemic cells (CCRF-CEM) for ClCCN(CCCl)CCCCOc1cccc(Nc2c3ccccc3nc3c(OCCN(CCCl)CCCl)cccc23)c1 ?
# output 7.60

* * *

Below, each of the compounds is paired with its reported pIC50 value.
- System: human lymphoblastic leukemic cells (CCRF-CEM)
- method_description: XTT-tetrazolium cytotoxicity assay, CCRF-CEM
- Format: cell-based
- condition_info: Table 1, Type 1 compounds, 72 h incubation, XTT
Interpret pIC50 as the negative base-10 log of the concentration measured in mol/L.

> print(dat)
                                   compound  quantity.name  experimental.value
1  ClCCN(CCCl)Cc1cccc(Nc2c3ccccc3nc3ccccc23)c1 [Compound 46]          pIC50                8.13
2  Cc1cccc2c(Nc3ccc(OCCN(CCCl)CCCl)cc3)c3cccc(C(=O)NCCN(C)C)c3nc12 [Compound 44]          pIC50                6.11
3  Cc1cccc2c(Nc3cccc(CN(CCCl)CCCl)c3)c3cccc(C(=O)NCCN(C)C)c3nc12 [Compound 48]          pIC50                8.77
4  Cc1cccc2c(Nc3ccc(OCCCCN(CCCl)CCCl)cc3)c3cccc(C(=O)NCCN(C)C)c3nc12 [Compound 45]          pIC50                7.64
5  Cc1cccc2c(Nc3cccc(OCCCCN(CCCl)CCCl)c3)c3cccc(C(=O)NCCN(C)C)c3nc12 [Compound 43]          pIC50                7.63
6  Cc1cccc2c(Nc3cccc(OCCN(CCCl)CCCl)c3)c3cccc(C(=O)NCCN(C)C)c3nc12 [Compound 42]          pIC50                8.52
7  Cc1cccc2c(Nc3ccc(CN(CCCl)CCCl)cc3)c3cccc(C(=O)NCCN(C)C)c3nc12 [Compound 49]          pIC50                8.09

Would you kindly look at the next entry?
# input Reported pIC50 for ClCCN(CCCl)Cc1ccc(Nc2c3ccccc3nc3ccccc23)cc1 [Compound 47] : what is it?
# output 7.52

* * *

- Test system: CCRF-CEM/VBL
- method_description: XTT cytotoxicity assay, vinblastine-resistant subline
- Assay type: cell-based, human
- condition_info: Homo sapiens, CCRF-CEM, 72 h, read-out: IC50 CCRF-CEM/VBL
quantity_name: IC50 (nM)
Give your result in nM as a bare value.

# input Entry OCc1cc(Nc2c3ccccc3nc3ccccc23)cc(OCCN(CCCl)CCCl)c1 [Compound 37] : reported IC50 = ?
# output 7.5

* * *

- Tested on: CCRF-CEM/VBL
- method_description: XTT cytotoxicity assay, vinblastine-resistant subline
- Format: cell-based, human
- condition_info: number in bracket; ratio of IC50's
Item-by-item account of folds of resistance CCRF-CEM/VBL vs CCRF-CEM parent cells
Respond with the bare value in ×.

Field: example entries. Status: answers known.
compound_structure_string	test_system	experimental_value
CC(=O)O[C@H]1C(=O)[C@@]2(C)[C@H]([C@H](OC(=O)c3ccccc3)[C@]3(O)C[C@H](OC(=O)[C@H](O)[C@@H](NC(=O)c4ccccc4)c4ccccc4)C(C)=C1C3(C)C)[C@]1(OC(C)=O)CO[C@@H]1C[C@@H]2O	CCRF-CEM/VBL	1080
Nc1cc(CO)cc(Nc2c3ccccc3nc3ccccc23)c1	CCRF-CEM/VBL	2.1
OCc1cc(Nc2c3ccccc3nc3ccccc23)cc(OCCN(CCCl)CCCl)c1	CCRF-CEM/VBL	0.53

For the next question, use this molecule.
# input Record request: folds of resistance CCRF-CEM/VBL vs CCRF-CEM parent cells value, item CC[C@]1(O)C[C@@H]2CN(CCc3c([nH]c4ccccc34)[C@@](C(=O)OC)(c3cc4c(cc3OC)N(C)[C@H]3[C@@](O)(C(=O)OC)[C@H](OC(C)=O)[C@]5(CC)C=CCN6CC[C@]43[C@@H]65)C2)C1
# output 450
